molecular target: MMP-9 (Homo sapiens, UniProt P14780); construct: made in house; host or cells: MMP-9-transfected HT1080 cells (spent media); experiment: In vitro MMP inhibition, Ki determination (fluorogenic substrate II); assay type: biochemical; settings: value not in parenthesis
Sequence (P14780 107-707 limits assumed): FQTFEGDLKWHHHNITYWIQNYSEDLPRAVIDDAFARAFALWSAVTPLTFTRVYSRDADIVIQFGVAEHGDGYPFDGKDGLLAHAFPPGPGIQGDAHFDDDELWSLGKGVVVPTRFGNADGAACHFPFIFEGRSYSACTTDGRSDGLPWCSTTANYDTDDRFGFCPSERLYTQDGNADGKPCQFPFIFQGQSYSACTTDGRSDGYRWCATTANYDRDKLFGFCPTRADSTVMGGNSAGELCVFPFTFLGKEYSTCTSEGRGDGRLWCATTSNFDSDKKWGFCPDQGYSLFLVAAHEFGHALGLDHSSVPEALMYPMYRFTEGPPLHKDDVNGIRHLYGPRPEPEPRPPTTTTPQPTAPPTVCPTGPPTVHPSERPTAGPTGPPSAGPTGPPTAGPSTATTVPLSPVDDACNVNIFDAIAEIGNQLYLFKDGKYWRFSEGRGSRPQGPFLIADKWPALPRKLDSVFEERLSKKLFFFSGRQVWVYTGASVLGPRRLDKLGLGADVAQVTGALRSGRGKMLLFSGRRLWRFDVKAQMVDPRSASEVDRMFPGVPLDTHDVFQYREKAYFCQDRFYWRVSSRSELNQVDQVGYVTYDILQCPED
pKi: −log10 of the molar value.
quantity_kind: pKi

| compound | pKi |
| --- | --- |
| O=C(NO)C1(S(=O)(=O)N2CCN(c3ccc(COCC(F)(F)C(F)(F)F)cc3)CC2)CCOCC1 | 7.30 |
| O=C(NO)C1(S(=O)(=O)N2CCN(c3ccc(OCCCC(F)(F)F)cc3F)CC2)CCOCC1 [Example 81] | 7.53 |
| CCCCCc1ccc(N2CCN(S(=O)(=O)C3(C(=O)NO)CCN(C(C)=O)CC3)CC2)cc1 | 9.34 |
| CCCCOc1ccc(N2CCN(S(=O)(=O)C3(C(=O)NO)CCN(c4ccc5c(c4)OCO5)CC3)CC2)cc1 | 7.84 |
| CCCCOc1ccc(N2CCN(S(=O)(=O)C3(C(=O)NO)CCN(c4nccc(C(F)(F)F)n4)CC3)CC2)cc1 | 7.63 |
| CCCCOc1ccc(N2CCN(S(=O)(=O)C3(C(=O)NO)CCN(Cc4ncc[nH]4)CC3)CC2)cc1 | 9.14 |
| CC(C)CCc1ccc(N2CCN(S(=O)(=O)C3(C(=O)NO)CCOCC3)CC2)nc1 | 9.28 |
| O=C(NO)C1(S(=O)(=O)N2CCN(c3ccc(OCCCC(F)(F)F)cc3F)CC2)CCOCC1 [Example 117] | 7.56 |
| CCCCCc1ccc(N2CCN(S(=O)(=O)C3(C(=O)NO)CCN(c4ncccn4)CC3)CC2)nc1 | 9.00 |
| CCCCOc1ccc(N2CCN(S(=O)(=O)C3(C(=O)NO)CCN(c4ccc(OC)nc4)CC3)CC2)cc1 | 8.67 |

I = O=C(NO)C1(S(=O)(=O)N2CCN(c3ccc(Cl)nn3)CC2)CCOCC1
II = O=C(NO)C1(S(=O)(=O)N2CCN(c3ccc(OCCCC(F)(F)F)cc3)CC2)CCN(C2CC2)CC1
Sort I and II by pKi descending and give the first. The response must carry the label of the picked entry. II

I = CCCCOc1ccc(N2CCN(S(=O)(=O)C3(C(=O)NO)CCN(C(=O)N4CCCCC4)CC3)CC2)cc1
II = O=C(NO)C1(S(=O)(=O)N2CCN(c3ccc(OCCCC(F)(F)F)cc3)CC2)CCN(c2cnccn2)CC1
III = CCCCOc1ccc(N2CCN(S(=O)(=O)C3(C(=O)NO)CCN(c4cnccn4)CC3)CC2)cc1
# sort list by recorded pKi, greatest to least Returns: the labels listed in the requested order. I, III, II
(I: 9.15, III: 8.75, II: 7.81)
